Experiment: Volume of distribution at steady state in Beagle dog at 0.2 mg/kg, iv administered as 10 mins infusion or 0.4 mg/kg, po via gavage administered as cassette dose by LC-MS/MS method
Type: ADME, organism-based, Canis lupus familiaris
Condition summary: in vivo, read-out: Vdss
Endpoint: Vd (L/kg)

>>> df
                      smiles_representation  endpoint  readout_number
0  COC(=O)Nc1ccc2c(c1)OCCCCCC[C@H](NC(=O)/C=C/c1cc(Cl)ccc1-n1cnnn1)c1nc-2c[nH]1        Vd             2.2

---

Test target: Vitamin K-dependent protein C (Homo sapiens)
Sequence (P04070 43-197 limits assumed): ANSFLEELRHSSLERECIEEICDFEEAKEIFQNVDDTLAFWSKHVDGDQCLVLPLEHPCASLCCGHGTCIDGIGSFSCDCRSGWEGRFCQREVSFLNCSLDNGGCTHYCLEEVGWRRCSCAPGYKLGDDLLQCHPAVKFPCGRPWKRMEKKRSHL
Sequence (P04070 212-461 limits assumed): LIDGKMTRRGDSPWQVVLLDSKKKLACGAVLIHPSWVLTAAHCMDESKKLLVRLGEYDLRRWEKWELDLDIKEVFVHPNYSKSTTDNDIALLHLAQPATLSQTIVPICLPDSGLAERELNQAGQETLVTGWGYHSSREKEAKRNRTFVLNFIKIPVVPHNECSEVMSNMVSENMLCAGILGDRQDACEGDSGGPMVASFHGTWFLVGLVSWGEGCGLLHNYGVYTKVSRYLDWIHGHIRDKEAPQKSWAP
Experiment: Inhibition of human activated protein C using pyroGlu-Pro-Arg-pNA as substrate after 10 to 120 mins at 37 degC by spectrophotometric method
Reported Ki is given for each of the following molecules.
Endpoint: Ki

>>> df
                      smiles_representation  endpoint     result
0  COC(=O)Nc1ccc2c(c1)NC(=O)CCCC[C@H](NC(=O)/C=C/c1cc(Cl)ccc1-n1cnnn1)c1nc-2c[nH]1        Ki  > 21.5 µM
1  COC(=O)Nc1ccc2c(c1)NC(=O)CC/C=C/C[C@H](NC(=O)/C=C/c1cc(Cl)ccc1-n1cnnn1)c1nc-2c[nH]1        Ki  > 21.5 µM
2  COC(=O)Nc1ccc(-c2nc([C@H](Cc3ccccc3)NC(=O)/C=C/c3cc(Cl)ccc3-n3cnnn3)[nH]c2Cl)cc1        Ki  > 21.5 µM

---

Test target: Tissue-type plasminogen activator (Homo sapiens, UniProt P00750)
Sequence (P00750 whole entry): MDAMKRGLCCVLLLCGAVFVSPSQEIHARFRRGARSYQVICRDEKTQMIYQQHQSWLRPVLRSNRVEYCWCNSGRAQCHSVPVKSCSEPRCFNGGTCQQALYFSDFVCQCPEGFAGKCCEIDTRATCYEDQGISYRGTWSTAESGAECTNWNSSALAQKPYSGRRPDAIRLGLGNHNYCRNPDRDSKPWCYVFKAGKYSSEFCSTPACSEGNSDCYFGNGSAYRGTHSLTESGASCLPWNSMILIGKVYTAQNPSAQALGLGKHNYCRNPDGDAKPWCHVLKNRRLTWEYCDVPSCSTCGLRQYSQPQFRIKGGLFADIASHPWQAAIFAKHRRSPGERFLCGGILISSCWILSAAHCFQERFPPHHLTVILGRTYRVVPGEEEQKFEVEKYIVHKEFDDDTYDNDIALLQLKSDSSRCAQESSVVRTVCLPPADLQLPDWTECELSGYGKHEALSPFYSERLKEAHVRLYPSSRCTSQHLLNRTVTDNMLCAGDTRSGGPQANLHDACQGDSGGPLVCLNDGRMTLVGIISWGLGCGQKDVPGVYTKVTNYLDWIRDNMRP
pKi: −log10 of the molar value.
Reported pKi is given for each of the following compounds.
Endpoint: pKi

In [3]: df
Out[3]:
                      smiles_representation  endpoint  result
0  COC(=O)Nc1ccc2c(c1)NC(=O)CCCC[C@H](NC(=O)/C=C/c1cc(Cl)ccc1-n1cnnn1)c1nc-2c[nH]1       pKi  < 5.21
1  COC(=O)Nc1ccc(-c2nc([C@H](Cc3ccccc3)NC(=O)/C=C/c3cc(Cl)ccc3-n3cnnn3)[nH]c2Cl)cc1       pKi  < 5.21

---

Experiment: Half life in dog liver microsomes
Type: ADME, Canis lupus familiaris, microsome
Endpoint: half-life

>>> print(df.to_string())
                      smiles_representation  result
0  COC(=O)Nc1ccc2c(c1)NC(=O)CC/C=C/C[C@H](NC(=O)/C=C/c1cc(Cl)ccc1-n1cnnn1)c1nc-2c[nH]1   > 2 h
1  COC(=O)Nc1ccc2c(c1)OCCCCCC[C@H](NC(=O)/C=C/c1cc(Cl)ccc1-n1cnnn1)c1nc-2c[nH]1  1.47 h
2  COC(=O)Nc1ccc2c(c1)NC(=O)CCCCC[C@H](NC(=O)/C=C/c1cc(Cl)ccc1-n1cnnn1)c1nc-2c[nH]1   > 2 h
3  COC(=O)Nc1ccc2c(c1)NC(=O)CCCC[C@H](NC(=O)/C=C/c1cc(Cl)ccc1-n1cnnn1)c1nc-2c[nH]1   > 2 h
4  COC(=O)Nc1ccc2c(c1)CCCCCC[C@H](NC(=O)/C=C/c1cc(Cl)ccc1-n1cnnn1)c1nc-2c[nH]1   > 2 h

---

Test target: Coagulation factor VII (Homo sapiens, UniProt P08709)
Sequence (P08709 whole entry): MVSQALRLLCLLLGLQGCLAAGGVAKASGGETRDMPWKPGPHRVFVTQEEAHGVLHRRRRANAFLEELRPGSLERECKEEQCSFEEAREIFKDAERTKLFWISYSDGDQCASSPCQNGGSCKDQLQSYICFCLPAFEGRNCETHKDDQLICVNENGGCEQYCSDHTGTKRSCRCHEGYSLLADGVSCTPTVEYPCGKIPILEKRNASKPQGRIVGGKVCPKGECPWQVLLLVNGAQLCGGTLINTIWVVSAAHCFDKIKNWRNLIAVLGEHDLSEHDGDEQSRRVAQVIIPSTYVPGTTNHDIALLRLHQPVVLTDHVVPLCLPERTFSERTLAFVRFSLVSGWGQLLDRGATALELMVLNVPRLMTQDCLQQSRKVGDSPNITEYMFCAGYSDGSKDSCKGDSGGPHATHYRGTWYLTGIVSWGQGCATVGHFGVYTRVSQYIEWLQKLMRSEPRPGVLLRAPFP
Endpoint: Ki (nM)

In [3]: df
Out[3]:
                      smiles_representation  readout_number
0  COC(=O)Nc1ccc2c(c1)NC(=O)CC/C=C/C[C@H](NC(=O)/C=C/c1cc(Cl)ccc1-n1cnnn1)c1nc-2c[nH]1            1670

---

Test target: Coagulation factor XI (Homo sapiens, UniProt P03951)
Sequence (P03951 19-387 limits assumed): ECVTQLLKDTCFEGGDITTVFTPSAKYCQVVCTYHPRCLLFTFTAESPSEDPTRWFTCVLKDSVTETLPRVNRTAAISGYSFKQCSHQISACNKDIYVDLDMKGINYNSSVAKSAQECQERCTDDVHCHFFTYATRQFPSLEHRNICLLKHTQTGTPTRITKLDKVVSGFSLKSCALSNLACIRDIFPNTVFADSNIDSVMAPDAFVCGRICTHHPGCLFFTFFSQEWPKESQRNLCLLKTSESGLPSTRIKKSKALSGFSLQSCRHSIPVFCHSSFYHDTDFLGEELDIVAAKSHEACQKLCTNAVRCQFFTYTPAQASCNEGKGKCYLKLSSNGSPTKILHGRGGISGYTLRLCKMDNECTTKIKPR
Sequence (P03951 388-625 limits assumed): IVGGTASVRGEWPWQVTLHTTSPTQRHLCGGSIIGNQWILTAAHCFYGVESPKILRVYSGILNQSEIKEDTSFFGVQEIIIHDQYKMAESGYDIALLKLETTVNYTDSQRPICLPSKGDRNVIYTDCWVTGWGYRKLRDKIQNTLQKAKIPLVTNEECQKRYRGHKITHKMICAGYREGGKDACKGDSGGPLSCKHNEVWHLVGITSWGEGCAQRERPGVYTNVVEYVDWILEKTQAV
Experiment: Inhibition of human coagulation factor 11a using pyroGlu-Pro-Arg-pNA as substrate after 10 to 120 mins at 25 degC by spectrophotometric method
pKi: −log10 of the molar value.
Endpoint: pKi

>>> print(df.to_string())
                      smiles_representation  endpoint  readout_number
0  COC(=O)Nc1ccc2c(c1)OCCCCC[C@H](NC(=O)/C=C/c1cc(Cl)ccc1-n1cnnn1)c1nc-2c[nH]1       pKi            6.38

---

Test target: Coagulation factor XI (Homo sapiens, UniProt P03951)
Experiment: Inhibition of human coagulation factor 11a using pyroGlu-Pro-Arg-pNA as substrate after 10 to 120 mins at 37 degC by spectrophotometric method
pKi: −log10 of the molar value.
Quick rule: pKi of at least 7 means condition met, below that means condition not met.

>>> df
                      smiles_representation        group_label
0  COC(=O)Nc1ccc2c(c1)NC(=O)CCCCC[C@H](NC(=O)/C=C/c1cc(Cl)ccc1-n1cnnn1)c1nc-2c[nH]1      condition met
1  COC(=O)Nc1ccc2c(c1)CCCCCC[C@H](NC(=O)/C=C/c1cc(Cl)ccc1-n1cnnn1)c1nc-2c(Cl)[nH]1      condition met
2  COC(=O)Nc1ccc2c(c1)NC(=O)CCCCC[C@H](NC(=O)/C=C/c1cc(Cl)ccc1-n1cnnn1)c1nc-2c(Cl)[nH]1      condition met
3  COC(=O)Nc1ccc2c(c1)CCCCCCC[C@H](NC(=O)/C=C/c1cc(Cl)ccc1-n1cnnn1)c1nc-2c[nH]1  condition not met
4  COC(=O)Nc1ccc2c(c1)CCCC/C=C/C[C@H](NC(=O)/C=C/c1cc(Cl)ccc1-n1cnnn1)c1nc-2c[nH]1  condition not met
5  COC(=O)Nc1ccc2c(c1)NC(=O)CCCC[C@H](NC(=O)/C=C/c1cc(Cl)ccc1-n1cnnn1)c1nc-2c[nH]1      condition met

---

Experiment: Half life in Beagle dog at 0.2 mg/kg, iv administered as 10 mins infusion or 0.4 mg/kg, po via gavage administered as cassette dose by LC-MS/MS method
Assay type: ADME, organism-based, Canis lupus familiaris
Condition summary: in vivo
Endpoint: half-life (h)

In [3]: df
Out[3]:
                      smiles_representation   endpoint  unit_abbrev  readout_number
0  COC(=O)Nc1ccc2c(c1)OCCCCCC[C@H](NC(=O)/C=C/c1cc(Cl)ccc1-n1cnnn1)c1nc-2c[nH]1  half-life            h             2.1

---

Reported Ki is given for each of the following compounds.
Test target: Coagulation factor XI (Homo sapiens, UniProt P03951)
Experiment: Inhibition of human coagulation factor 11a using pyroGlu-Pro-Arg-pNA as substrate after 10 to 120 mins at 37 degC by spectrophotometric method
Endpoint: Ki

                      smiles_representation                               test_target   result
0  COC(=O)Nc1ccc2c(c1)CCCCCCC[C@H](NC(=O)/C=C/c1cc(Cl)ccc1-n1cnnn1)c1nc-2c(Cl)[nH]1  Coagulation factor XI (Homo sapiens, UniProt P03951)    68 nM
1  COC(=O)Nc1ccc2c(c1)NC(=O)OCCCC[C@H](NC(=O)/C=C/c1cc(Cl)ccc1-n1cnnn1)c1nc-2c[nH]1  Coagulation factor XI (Homo sapiens, UniProt P03951)   3.8 nM
2  COC(=O)Nc1ccc2c(c1)NCCC/C=C/C[C@H](NC(=O)/C=C/c1cc(Cl)ccc1-n1cnnn1)c1nc-2c[nH]1  Coagulation factor XI (Homo sapiens, UniProt P03951)   514 nM
3  COC(=O)Nc1ccc2c(c1)NC(=O)OC/C=C/C[C@H](NC(=O)/C=C/c1cc(Cl)ccc1-n1cnnn1)c1nc-2c[nH]1  Coagulation factor XI (Homo sapiens, UniProt P03951)  0.88 nM

Values were extracted from ChEMBL document CHEMBL3992532.
